molecular target: p110δ/p85α (Homo sapiens, UniProt O00329); assay: Transcreener KINASE Assay, kinase inhibition of p110δ/p85α; details: read-out: PI3Kδ IC50
Sequence (O00329 whole entry): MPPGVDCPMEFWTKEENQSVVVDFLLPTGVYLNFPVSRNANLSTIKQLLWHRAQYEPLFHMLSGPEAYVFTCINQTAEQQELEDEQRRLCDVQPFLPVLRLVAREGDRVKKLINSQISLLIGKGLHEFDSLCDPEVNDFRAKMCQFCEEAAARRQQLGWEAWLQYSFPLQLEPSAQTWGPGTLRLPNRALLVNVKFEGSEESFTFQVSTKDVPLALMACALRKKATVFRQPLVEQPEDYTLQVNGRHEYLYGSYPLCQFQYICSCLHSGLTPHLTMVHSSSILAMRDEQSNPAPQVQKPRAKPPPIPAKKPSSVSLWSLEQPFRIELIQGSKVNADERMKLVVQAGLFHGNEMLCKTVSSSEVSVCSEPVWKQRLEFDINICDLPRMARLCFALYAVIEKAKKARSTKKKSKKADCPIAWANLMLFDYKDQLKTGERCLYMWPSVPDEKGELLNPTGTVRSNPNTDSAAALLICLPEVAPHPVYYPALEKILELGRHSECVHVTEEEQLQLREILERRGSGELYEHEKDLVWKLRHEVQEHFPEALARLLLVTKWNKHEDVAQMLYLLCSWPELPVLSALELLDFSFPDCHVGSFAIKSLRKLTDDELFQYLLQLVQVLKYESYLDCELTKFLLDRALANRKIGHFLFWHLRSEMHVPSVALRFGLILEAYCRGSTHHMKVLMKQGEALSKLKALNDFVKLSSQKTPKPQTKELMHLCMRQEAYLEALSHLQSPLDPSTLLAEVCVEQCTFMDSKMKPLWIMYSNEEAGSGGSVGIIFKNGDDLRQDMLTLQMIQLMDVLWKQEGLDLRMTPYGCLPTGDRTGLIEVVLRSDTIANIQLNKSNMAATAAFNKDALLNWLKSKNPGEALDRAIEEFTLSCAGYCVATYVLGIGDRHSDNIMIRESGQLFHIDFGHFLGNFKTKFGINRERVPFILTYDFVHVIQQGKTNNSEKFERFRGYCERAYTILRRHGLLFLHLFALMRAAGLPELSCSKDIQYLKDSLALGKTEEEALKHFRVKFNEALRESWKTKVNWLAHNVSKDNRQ
Sequence (P27986 whole entry partner): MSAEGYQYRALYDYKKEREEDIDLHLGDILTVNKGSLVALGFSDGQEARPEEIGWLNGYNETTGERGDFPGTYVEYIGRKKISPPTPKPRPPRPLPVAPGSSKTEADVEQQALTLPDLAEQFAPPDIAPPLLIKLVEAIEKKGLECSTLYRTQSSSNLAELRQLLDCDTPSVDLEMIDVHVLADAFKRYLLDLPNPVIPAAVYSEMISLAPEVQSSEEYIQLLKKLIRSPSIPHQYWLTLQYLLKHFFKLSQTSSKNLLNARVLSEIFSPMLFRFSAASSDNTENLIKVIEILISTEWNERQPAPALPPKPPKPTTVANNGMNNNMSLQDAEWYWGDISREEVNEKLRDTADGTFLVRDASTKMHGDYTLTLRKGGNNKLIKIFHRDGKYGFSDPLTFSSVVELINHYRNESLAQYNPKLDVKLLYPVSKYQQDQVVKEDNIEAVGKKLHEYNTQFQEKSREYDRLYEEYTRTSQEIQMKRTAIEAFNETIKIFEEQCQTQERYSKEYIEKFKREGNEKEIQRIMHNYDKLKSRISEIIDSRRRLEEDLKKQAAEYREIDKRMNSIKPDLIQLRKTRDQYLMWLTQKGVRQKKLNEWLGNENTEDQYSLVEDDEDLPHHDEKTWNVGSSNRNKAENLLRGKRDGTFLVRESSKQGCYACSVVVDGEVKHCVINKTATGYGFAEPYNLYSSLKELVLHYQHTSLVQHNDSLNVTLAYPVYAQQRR
Measured pIC50, listed per entry for reference.
Keep it numeric: pIC50 is minus log10 of the concentration in mol/L.

# molecule, pIC50
rows = [
    ("O=c1c2c(F)ccn2nc([C@@H]2CCCN2c2ncnc3[nH]cnc23)n1-c1ccccc1 [Compound 190]", 8.52),
]

Ask: Under p110δ/p85α (Homo sapiens, UniProt O00329): pIC50 value of N#Cc1n[nH]c2ncnc(N3CCC[C@H]3c3nn4ccc(Cl)c4c(=O)n3-c3ccccc3)c12 [Compound 111] ?
Reply: 7.35

Ask: Under p110δ/p85α (Homo sapiens, UniProt O00329): pIC50 value of Cc1nc(N)nc(N2CC[C@H]2c2nn3ccc(Cl)c3c(=O)n2-c2cccc(F)c2)c1C#N [Compound 441] ?
Reply: 8.70

----------
biological target: p110β/p85α (Homo sapiens); experiment: Transcreener KINASE Assay, kinase inhibition of p110β/p85α; format: biochemical; conditions: 1 uM test compound
endpoint_name: PI3Kβ IH % @ 1 uM (%)
Give just the numeric value; % need not be written.

As a guide, the following entries are already answered.
# compound, measurement_unit, PI3Kβ IH % @ 1 uM
records = [
    ("N#Cc1c[nH]c2ncnc(N3CCC[C@H]3c3nn4ccc(Cl)c4c(=O)n3CC3CCCCC3)c12", "%", 10.4),
    ("CC(=O)c1cnc(N)nc1NC(C)c1cn2ccc(Cl)c2c(=O)n1-c1ccccc1 (centres unmarked)", "%", 98.8),
    ("C[C@H]1CN(c2ncnc3[nH]cc(C#N)c23)C1c1nn2ccc(Cl)c2c(=O)n1-c1ccccc1 (some centres unmarked)", "%", 69.3),
]

Ask: Under p110β/p85α (Homo sapiens): PI3Kβ IH % @ 1 uM value of N#Cc1ccc(-c2n[nH]c3ncnc(N4CC[C@H]4c4nn5ccc(Cl)c5c(=O)n4-c4ccccc4)c23)cn1 ?
Reply: 25.7

Ask: Under p110β/p85α (Homo sapiens): PI3Kβ IH % @ 1 uM value of N#Cc1c[nH]c2ncnc(N3CC[C@H]3c3nn4ccc(Br)c4c(=O)n3-c3ccccc3)c12 ?
Reply: 23.8

Ask: Under p110β/p85α (Homo sapiens): PI3Kβ IH % @ 1 uM value of CC(Nc1nc(N)ncc1C#N)c1cn2ccc(Cl)c2c(=O)n1-c1ccccc1 (centres unmarked) ?
Reply: 94.2

Ask: Under p110β/p85α (Homo sapiens): PI3Kβ IH % @ 1 uM value of CN(C)CCn1c([C@@H]2CCCN2c2ncnc3[nH]cnc23)nn2ccc(Cl)c2c1=O ?
Reply: 50.4

Ask: Under p110β/p85α (Homo sapiens): PI3Kβ IH % @ 1 uM value of O=c1c2c(F)ccn2nc([C@@H]2C[C@H](F)CN2c2ncnc3[nH]cnc23)n1-c1ccccc1 ?
Reply: 74.5

----------
Measured IC50, listed per entry for reference.
molecular target: p110β/p85α (Homo sapiens, UniProt P42338); test: Transcreener KINASE Assay, kinase inhibition of p110β/p85α; details: read-out: PI3Kβ IC50
Sequence (P42338 whole entry, one chain of several): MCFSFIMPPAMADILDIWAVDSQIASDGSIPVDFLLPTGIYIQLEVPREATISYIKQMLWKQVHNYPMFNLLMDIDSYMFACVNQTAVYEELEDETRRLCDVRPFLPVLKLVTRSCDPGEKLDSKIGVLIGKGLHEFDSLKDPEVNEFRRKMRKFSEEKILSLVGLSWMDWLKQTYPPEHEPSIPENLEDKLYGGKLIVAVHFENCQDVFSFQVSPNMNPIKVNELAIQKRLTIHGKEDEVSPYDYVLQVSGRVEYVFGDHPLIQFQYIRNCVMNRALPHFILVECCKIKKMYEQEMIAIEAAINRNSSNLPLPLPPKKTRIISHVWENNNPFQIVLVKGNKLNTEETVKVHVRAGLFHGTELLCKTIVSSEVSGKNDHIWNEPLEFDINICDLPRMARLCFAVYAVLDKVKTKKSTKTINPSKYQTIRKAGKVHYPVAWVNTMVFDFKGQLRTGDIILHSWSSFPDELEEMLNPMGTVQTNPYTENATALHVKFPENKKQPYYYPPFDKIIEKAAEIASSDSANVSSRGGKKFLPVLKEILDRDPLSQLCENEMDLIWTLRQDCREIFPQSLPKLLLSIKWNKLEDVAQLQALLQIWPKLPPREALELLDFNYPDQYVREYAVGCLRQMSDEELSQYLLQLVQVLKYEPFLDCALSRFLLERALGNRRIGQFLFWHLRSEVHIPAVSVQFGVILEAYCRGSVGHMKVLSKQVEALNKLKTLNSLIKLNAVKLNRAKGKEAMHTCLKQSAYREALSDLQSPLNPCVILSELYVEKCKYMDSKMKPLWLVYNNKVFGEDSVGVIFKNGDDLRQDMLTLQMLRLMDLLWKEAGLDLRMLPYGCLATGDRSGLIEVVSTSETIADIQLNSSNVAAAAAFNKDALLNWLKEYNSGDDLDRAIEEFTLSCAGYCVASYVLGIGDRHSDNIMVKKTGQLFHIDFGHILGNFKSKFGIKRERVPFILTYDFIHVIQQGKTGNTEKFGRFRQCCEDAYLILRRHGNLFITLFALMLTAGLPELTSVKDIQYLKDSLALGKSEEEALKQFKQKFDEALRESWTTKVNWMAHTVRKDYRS
Give just the numeric value; nM need not be written.

As a guide, the following entries are already answered.
# compound, measurement_unit, numeric_value
rows = [
    ("COc1ccc(-c2c[nH]c3ncnc(N4CC[C@H]4c4nn5ccc(Cl)c5c(=O)n4-c4ccccc4)c23)cn1", "nM", 61),
    ("CC(=O)c1c[nH]c2ncnc(N3CCC[C@H]3c3nn4ccc(Cl)c4c(=O)n3-c3ccccc3)c12", "nM", 51),
    ("N#Cc1c[nH]c2ncnc(N3C[C@@H](O)C[C@H]3c3nn4ccc(Cl)c4c(=O)n3-c3ccccc3)c12", "nM", 31),
]

Ask: Field request: IC50 | item: N#Cc1c[nH]c2ncnc(N3C[C@@H](F)C[C@H]3c3nn4ccc(Cl)c4c(=O)n3Cc3ccccn3)c12
Reply: 473

Ask: Field request: IC50 | item: CC(=O)c1cnc(N)nc1N1C[C@H](C)[C@H]1c1nn2ccc(Cl)c2c(=O)n1-c1ccccc1
Reply: 223

Ask: Field request: IC50 | item: C[C@H]1CN(c2nc(N)nc(N)c2C#N)C1c1nn2ccc(Cl)c2c(=O)n1-c1cccc(F)c1 (stereo partly shown)
Reply: 121

Ask: Field request: IC50 | item: CC(Nc1ncnc2[nH]cc(F)c12)c1cc2ncc(Cl)n2c(=O)n1-c1ccccc1 (stereo not shown)
Reply: 257
